Molecular target: BRM (Homo sapiens, UniProt P51531)
Sequence (P51531 whole entry): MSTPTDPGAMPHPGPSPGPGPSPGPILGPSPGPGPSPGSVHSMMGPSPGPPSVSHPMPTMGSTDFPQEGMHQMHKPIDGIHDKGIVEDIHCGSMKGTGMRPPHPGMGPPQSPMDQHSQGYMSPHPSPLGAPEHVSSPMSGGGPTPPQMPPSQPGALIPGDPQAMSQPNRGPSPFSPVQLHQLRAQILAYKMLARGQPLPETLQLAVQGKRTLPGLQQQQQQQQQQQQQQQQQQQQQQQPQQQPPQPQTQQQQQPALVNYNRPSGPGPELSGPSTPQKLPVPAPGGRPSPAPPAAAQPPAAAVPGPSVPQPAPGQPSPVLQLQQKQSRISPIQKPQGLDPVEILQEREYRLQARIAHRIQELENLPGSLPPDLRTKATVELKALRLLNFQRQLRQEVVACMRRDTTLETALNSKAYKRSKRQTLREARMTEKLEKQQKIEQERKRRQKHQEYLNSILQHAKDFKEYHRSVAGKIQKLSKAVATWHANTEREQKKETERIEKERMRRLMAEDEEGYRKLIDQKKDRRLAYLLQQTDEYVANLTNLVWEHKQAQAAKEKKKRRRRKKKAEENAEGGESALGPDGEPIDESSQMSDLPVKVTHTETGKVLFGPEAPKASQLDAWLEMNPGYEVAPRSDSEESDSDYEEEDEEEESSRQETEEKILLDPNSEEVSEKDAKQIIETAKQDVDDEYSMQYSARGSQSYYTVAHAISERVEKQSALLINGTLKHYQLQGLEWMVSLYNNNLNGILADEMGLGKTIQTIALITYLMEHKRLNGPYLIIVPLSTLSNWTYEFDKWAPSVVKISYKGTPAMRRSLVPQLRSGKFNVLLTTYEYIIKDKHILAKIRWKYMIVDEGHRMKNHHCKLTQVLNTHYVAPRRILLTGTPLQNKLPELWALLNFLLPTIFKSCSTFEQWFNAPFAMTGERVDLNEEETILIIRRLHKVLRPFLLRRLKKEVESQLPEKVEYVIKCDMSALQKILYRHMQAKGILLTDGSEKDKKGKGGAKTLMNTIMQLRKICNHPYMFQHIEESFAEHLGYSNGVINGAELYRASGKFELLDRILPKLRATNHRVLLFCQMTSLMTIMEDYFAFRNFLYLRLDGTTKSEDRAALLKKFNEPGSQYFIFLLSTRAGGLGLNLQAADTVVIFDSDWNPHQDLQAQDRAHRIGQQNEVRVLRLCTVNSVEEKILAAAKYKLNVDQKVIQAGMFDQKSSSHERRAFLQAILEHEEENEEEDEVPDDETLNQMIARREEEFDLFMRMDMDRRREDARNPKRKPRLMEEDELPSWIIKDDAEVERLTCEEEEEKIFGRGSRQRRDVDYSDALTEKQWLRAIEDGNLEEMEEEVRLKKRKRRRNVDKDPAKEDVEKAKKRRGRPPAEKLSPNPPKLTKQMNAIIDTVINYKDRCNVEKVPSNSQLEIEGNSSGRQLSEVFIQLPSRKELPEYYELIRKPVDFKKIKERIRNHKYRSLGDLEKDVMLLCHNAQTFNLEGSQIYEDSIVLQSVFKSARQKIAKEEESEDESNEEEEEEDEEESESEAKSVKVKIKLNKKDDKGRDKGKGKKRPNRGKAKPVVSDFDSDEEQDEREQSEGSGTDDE
Assay: ATPase catalytic activity assay of BRM (ADP-Glo)
Assay type: biochemical
endpoint: BRM Max % Inhibition

Example entries begin here.
> print(dat)
                                   molecule  measurement
1  CC(C)S(=O)(=O)c1cccc(C(=O)NCC(=O)Nc2nc(-c3cccc(-c4ccnc(CO)c4)c3)cs2)c1 [Compound 26]         >90%
2  C[C@@H]1CN(c2cccc(-c3csc(NC(=O)CNC(=O)c4ccc5c(c4)[C@](C)(CO)CC5)n3)n2)C[C@H](C)O1 [Compound 223]         >95%
3  C[C@@H]1CN(c2cccc(-c3csc(NC(=O)CNC(=O)c4ccc5c(c4)C(F)(C(F)F)CCO5)n3)n2)C[C@H](C)O1 (stereo in doubt) [Compound 273]         >95%
4  COCC(NC(=O)c1ccc2c(c1)[C@](C)(F)COC2)C(=O)Nc1nc(-c2cccc(C(F)F)c2)cs1 (stereo in doubt) [Compound 327]         >95%

Request: Fill in: BRM Max % Inhibition of C[C@@H]1CN(c2cccc(-c3csc(NC(=O)CNC(=O)c4ccc5c(c4)[C@](C)(CO)CC5)n3)c2)C[C@H](C)O1 [Compound 218] is ___
Result: >90%

Request: Fill in: BRM Max % Inhibition of C[C@@H]1CN(c2cccc(-c3csc(NC(=O)CNC(=O)c4ccc5c(c4)[C@@H]([C@H](C)O)CC5)n3)n2)C[C@H](C)O1 [Compound 140] is ___
Result: >95%
